These data points were gathered from patent US7459284B2.

test: Light emission spectra by Fast Spectral Scanning System (FSSS); format: physicochemical; settings: FSSS; hydrogen peroxide in strong alkaline solution
Field: Emission Maximum. Provide a value for each of the compounds that follow.
Numeric answer plus unit only.

Worked examples, 6 compounds total:
The value of Emission Maximum measured for the compound CN1c2ccccc2C2(Oc3ccccc3OC2=O)c2cc(OP(=O)(O)O)ccc21 (centres unmarked) turned out to be 474 nm

The value of Emission Maximum measured for the compound `Cc1cc(C(=O)OCc2ccccc2)cc(C)c1OC(=O)c1c2ccccc2[n+](C)c2ccc(OP(=O)(O)O)cc12` turned out to be 474 nm

The value of Emission Maximum measured for the compound `Cc1cc(C(=O)O)cc(C)c1OC(=O)c1c2ccccc2[n+](C)c2ccc(OP(=O)(O)O)cc12.[Na+].[Na+]` turned out to be 478 nm

The value of Emission Maximum measured for the compound `Cc1cc(C(=O)O)cc(C)c1OC(=O)c1c2ccccc2[n+](CCCCS(=O)(=O)[O-])c2ccc(OP(=O)(O)O)cc12` turned out to be 474 nm

The value of Emission Maximum measured for the compound `Cc1cc(C(=O)O)cc(C)c1OC(=O)c1c2ccccc2[n+](C)c2ccc(O)cc12` turned out to be 602 nm

The value of Emission Maximum measured for the compound `C[n+]1c2ccccc2c(C(=O)Oc2ccc(OP(=O)(O)O)cc2)c2ccccc21` turned out to be 436 nm

Each of the following entries comes with a recorded value; kindly state Emission Maximum for each.
1. Cc1cc(C(=O)O)cc(C)c1OC(=O)c1c2ccccc2[n+](CCCCS(=O)(=O)[O-])c2ccc(O)cc12
2. Cc1cc(C(=O)OCc2ccccc2)cc(C)c1OC(=O)c1c2ccccc2[n+](C)c2ccc(O)cc12
3. COc1ccc2c(c1)c(C(=O)Oc1c(C)cc(C(=O)O)cc1C)c1cc(O)ccc1[n+]2C

Result:
1: 594 nm; 2: 604 nm; 3: 674 nm

Each of the following entries comes with a recorded value; kindly state Emission Maximum for each.
1. COc1ccc2c(c1)c(C(=O)Oc1c(C)cc(C(=O)O)cc1C)c1cc(OP(=O)(O)O)ccc1[n+]2C.[Na+].[Na+]
2. C[n+]1c2ccccc2c(C(=O)Oc2ccccc2)c2cc(OP(=O)(O)O)ccc21

Result:
["476 nm", "478 nm"]

---

Field: Emission Range. Provide a value for each of the molecules that follow.
test: Light emission spectra by Fast Spectral Scanning System (FSSS); assay type: physicochemical; settings: spectral region with signal intensity above 5% of peak height; FSSS scanning limit 380-780 nm; flashed with 0.1 N HNO3/0.5% H2O2 then 0.25 N NaOH/0.5% ARQUAD

The value of Emission Range measured for the molecule `Cc1cc(C(=O)O)cc(C)c1OC(=O)c1c2ccccc2[n+](CCCCS(=O)(=O)[O-])c2ccc(OP(=O)(O)O)cc12` turned out to be 430-600 nm

The value of Emission Range measured for the molecule `Cc1cc(C(=O)OCc2ccccc2)cc(C)c1OC(=O)c1c2ccccc2[n+](C)c2ccc(OP(=O)(O)O)cc12` turned out to be 430-600 nm

The value of Emission Range measured for the molecule `Cc1cc(C(=O)OCc2ccccc2)cc(C)c1OC(=O)c1c2ccccc2[n+](C)c2ccc(O)cc12` turned out to be 500-780^ nm

Each of the following entries comes with a recorded value; kindly state Emission Range for each.
1. Cc1cc(C(=O)O)cc(C)c1OC(=O)c1c2ccccc2[n+](CCCCS(=O)(=O)[O-])c2ccc(O)cc12
2. COc1ccc2c(c1)c(C(=O)Oc1c(C)cc(C(=O)O)cc1C)c1cc(O)ccc1[n+]2C
3. CN1c2ccccc2C2(Oc3ccccc3OC2=O)c2cc(OP(=O)(O)O)ccc21 (centres unmarked)
4. C[n+]1c2ccccc2c(C(=O)Oc2ccc(OP(=O)(O)O)cc2)c2ccccc21
5. Cc1cc(C(=O)O)cc(C)c1OC(=O)c1c2ccccc2[n+](C)c2ccc(O)cc12
6. C[n+]1c2ccccc2c(C(=O)Oc2ccccc2)c2cc(OP(=O)(O)O)ccc21
7. Cc1cc(C(=O)O)cc(C)c1OC(=O)c1c2ccccc2[n+](C)c2ccc(OP(=O)(O)O)cc12.[Na+].[Na+]

Result:
["500-780^ nm", "520-780^ nm", "430-600 nm", "410-540 nm", "500-780^ nm", "430-600 nm", "430-600 nm"]

The value of Emission Range measured for the molecule `COc1ccc2c(c1)c(C(=O)Oc1c(C)cc(C(=O)O)cc1C)c1cc(OP(=O)(O)O)ccc1[n+]2C.[Na+].[Na+]` turned out to be 440-600 nm
